# Tested on: Wolbachia pipientis
# Assay Comment: Anti-Wolbachia Cell-Based Screen
# Assay type: functional
# Parameters: scale not given: in the data most compounds retested in dose-response had high values
# Measurement Parameters: 5 µM
The whole screen tested about 48,000 compounds, of which about 13,000 (27%) showed an effect of 50% or more. This is one part of the list.
Measured Percent Effect, listed per entry for reference.

- Compound: "CN(C)c1ccc(CCCNC(=O)Nc2ccc(C#N)cc2)cc1"
  Percent Effect [%]: 14.16
- Compound: "CNc1cnc(CC2COCCN(Cc3cccc(C)n3)C2)cn1 (stereo unspecified)"
  Percent Effect [%]: 107
- Compound: "Cc1cccc(CN2C[C@H]3OC(=O)N(CCCN4CCOCC4)[C@H]3C2)n1"
  Percent Effect [%]: -5.32
- Compound: "COCC(=O)N1Cc2cn(C)nc2C(COc2cccnc2)C1 (stereo unspecified)"
  Percent Effect [%]: -3.351
- Compound: "Cc1nc2cc(F)cc(C(=O)N3CCN(CCO)CC3)c2nc1C"
  Percent Effect [%]: -10.5
- Compound: "COCC1CN(C(=O)c2ccco2)Cc2cn(C)nc21.O=C(O)C(F)(F)F (stereo unspecified)"
  Percent Effect [%]: -0.009633
- Compound: "OC1COCCN(Cc2cccc(N3CCOCC3)c2)C1 (stereo unspecified)"
  Percent Effect [%]: -7.923
- Compound: "O=C1CC2(CCN(Cc3ccoc3)C2)CN1c1ccc2c(c1)OCO2 (stereo unspecified)"
  Percent Effect [%]: 2.94
- Compound: "COCC1CN(C(=O)COc2ccccc2)Cc2cn(C)nc21.O=C(O)C(F)(F)F (stereo unspecified)"
  Percent Effect [%]: -8.714
- Compound: "COc1cccc2c1OCCCN(c1nc(C)nc3c1CCNCC3)C2"
  Percent Effect [%]: -7.329
- Compound: "O=C(c1ccc(-c2cccs2)cc1F)N1CCN(CCO)CC1"
  Percent Effect [%]: -12.79
